Test system: CDC1551(rv1405c′::GFP) reporter Mtb strain
Assay: microbe, parasite or virus in culture
Format: cell-based, Mycobacterium tuberculosis
Conditions: Mycobacterium tuberculosis; read-out: rv1405c'::GFP secondary assay NPA% at 10 µM compound
Quantity: activity at 10 µM (%)
One number for each entry, in %.

Req: Look up and report measured activity at 10 µM for this entry: Cn1cc(CCC(=O)Nc2ccc3c(c2)S(=O)(=O)C=C3)cn1
Resp: 74.5

Req: Look up and report measured activity at 10 µM for this entry: Cc1ccc(-n2nc(C)c3c(=O)[nH]c(C(F)(F)F)nc32)cc1
Resp: 37.3

Req: Determine from records and report activity at 10 µM for CC(C)CCOc1ccc(C(=O)Nc2cc(Cl)ccc2C(N)=O)cc1
Resp: 63.2

Req: Name the recorded activity at 10 µM of the compound listed here: COc1ccc(F)c(-c2cc3c(cc2C(N)=O)OCO3)c1
Resp: 147

Req: Assign activity at 10 µM to the following record: COc1ccc2c(CN3CCOCC(CN(C)C)C3)cn(C)c2c1 (stereo not shown)
Resp: 112

Go through the list and state activity at 10 µM for each entry.
1. Cc1c(Cl)cccc1S(=O)(=O)Nc1nn(C(C)(C)C)cc1C#N
2. Cc1cccc(C)c1OC1CCN(c2cncc(C(N)=O)n2)CC1
3. COc1ccc(OC)c(C2CCCN2C(=O)NCc2cccs2)c1 (stereo not shown)
4. Cn1cccc1C(=O)NS(=O)(=O)c1ccc(C#N)c(Cl)c1
5. O=C(O)c1cc2ccccc2cc1NS(=O)(=O)N1CCCCC1
6. OC1(c2ccccc2)CCN(Cc2cnc3c(-c4ccccc4)cnn3c2)CC1

Resp:
1. 50.8
2. 145
3. 119
4. 175
5. 52.8
6. 101

# batch size: 8; output activity at 10 µM per entry
1. CC(CNC(=O)Nc1cccc(-c2noc(=O)[nH]2)c1)c1ccccc1 (stereo not shown)
2. O=S1(=O)CC(S(=O)(=O)Nc2ccccc2-c2cccs2)c2ccccc21 (stereo not shown)
3. Clc1cccc2ccc(CN3CCn4cncc4C3)nc12
4. CSc1nc2nc3c(cc2c(=O)[nH]1)C(O)Oc1ccc(C)cc1-3 (stereo not shown)
5. O=C(Cc1ccc2c(c1)CCC2)NCc1ccccc1F
6. Cc1oc(C(=O)Nc2nnc(C(F)(F)F)[nH]2)cc1S(=O)(=O)N1CCCC1
7. CCc1nc(C(=O)Nc2nc(C#N)c(C#N)[nH]2)nn1-c1ccccc1Cl
8. O=C(NC[C@H]1C[C@H]2C=C[C@H]1C21CC1)c1cnc(N2CCOCC2)nc1

Resp:
1: 38.3; 2: 179; 3: 226; 4: 53.9; 5: 103; 6: 39.8; 7: 418; 8: 104

---

Assay: Mouse plasma stability
Format: in vitro ADME
Details: 5-h incubation
Quantity: remaining at 5 h

Req: State its remaining at 5 h for this molecule: CCSc1ncc(CN2CCN(c3nc4ccccc4o3)CC2)cn1
Resp: > 99.9%

---

System: CDC1551(rv1405c′::GFP) reporter Mtb strain
Assay: microbe, parasite or virus in culture
Format: cell-based, Mycobacterium tuberculosis
Conditions: Mycobacterium tuberculosis; read-out: rv1405c'::GFP secondary assay NPA% at 10 µM compound
Would you mind telling me the reported activity at 10 µM of each entry?
Answers are plain numbers, in %.

Consider the following illustrative entries.
Req: Retrieve activity at 10 µM measured for CCSc1ncc(CN2CCN(c3nc4ccccc4o3)CC2)cn1 and print it.
Resp: 137

Req: Give the measured activity at 10 µM for Cc1nc2nc(-c3cccs3)nn2c(O)c1C1CCS(=O)(=O)C1 (stereo not drawn)
Resp: -2.1

Req: Tell me its activity at 10 µM given CCN(CC)c1ccc2c(NC3CCCCC3)nc(=O)oc2c1 as the entry.
Resp: 110

Req: Please report activity at 10 µM for the following molecule: NC(=O)c1cc2c(cc1-c1cccc(C(F)(F)F)c1)OCO2
Resp: 201

Req: Please look at this molecule and report its activity at 10 µM: Cn1ccc(C(=O)Nc2nc(Sc3ccccc3)ns2)cc1=O
Resp: 42

Req: For COC(=O)Oc1sc2nc3ccccc3nc2c1N [RU-0193917, COC(=O)OC1=C(N)C2=C(S1)N=C1C=CC=CC1=N2] , write its activity at 10 µM.
Resp: 111

Dear reader, for each entry below, please note its activity at 10 µM.
1. COc1ccc2c(c1)OCC(C(=O)C(C#N)c1nc3ccccc3o1)C2 (stereo not drawn)
2. CCCc1oncc1C(=O)NC1CC(=O)N(CCc2ccc(F)cc2)C1 (stereo not drawn)
3. O=C(c1cnc2ccccn12)N1CCCC(CCc2cccc(C(F)(F)F)c2)C1 (stereo not drawn)

Resp:
1: 136; 2: 87.7; 3: 135

---

Could you please report measured activity at 10 µM for the items listed next?
Tested on: CDC1551(rv2390c′::GFP) reporter Mtb strain, response to high [Cl−]
Experiment: microbe, parasite or virus in culture
Type: cell-based, Mycobacterium tuberculosis
Settings: Mycobacterium tuberculosis, 144 h; 10 µM, pH 6.4, 250 mM NaCl, 6 days; read-out: rv2390c'::GFP validation assay NPA% at 10 µM compound
Answers are plain numbers, in %.

Req: Please list activity at 10 µM recorded for the compound CCNC(=O)CSc1ccc2c3c(cccc13)C(=O)c1ccccc1-2
Resp: 128

Req: Hello, please tell me recorded activity at 10 µM for this one: Cc1cc(C(C)C(=O)Nc2ccc(N3CCN(C)CC3)cn2)c(C)o1 (stereo not shown)
Resp: 139

Req: Fill in activity at 10 µM for record Clc1cccc2ccc(CN3CCn4cncc4C3)nc12
Resp: 132

Req: Recall and state the measured activity at 10 µM for Cc1ccc(NC(=O)c2cc(C)n(C3CC3)c2C)c(C)c1 .
Resp: 105

Req: Supply measured activity at 10 µM of CC1(C)CC2CC(C)(CN2CC(O)COc2ccc(F)cc2Cl)C1 (stereo not shown) in your reply.
Resp: 118

Give activity at 10 µM for each listed item.
1. O=C(c1nccc2ccccc12)N1CCN(CC2CCCC2)CC1
2. O=C(O)c1cc2ccccc2cc1NS(=O)(=O)N1CCCCC1
3. Cc1ccccc1OCC(=O)NCc1ccc(C)n1C
4. COCCOc1ccc(NS(=O)(=O)c2cn(C)c(Cl)n2)cn1
5. CC(SCc1cc(=O)n2nc(N)[nH]c2n1)c1ccccc1Cl (stereo not shown)
6. CC(C)CCOc1ccc(C(=O)Nc2cc(Cl)ccc2C(N)=O)cc1
7. OC1(c2ccccc2)CCN(Cc2cnc3c(-c4ccccc4)cnn3c2)CC1

Resp:
1. 140
2. 66.4
3. 161
4. 168
5. 13.3
6. 57.1
7. 118

---

Test: Vero cell toxicity assay (MTS)
Format: cell-based
Settings: African green monkey, Vero cells
Quantity: CC50 at 72 h

Req: Please report CC50 at 72 h for the following molecule: CCSc1ncc(CN2CCN(c3nc4ccccc4o3)CC2)cn1 [C6]
Resp: > 50 mg/L

---

Target: CYP1A2 (Homo sapiens, UniProt P05177)
Sequence (P05177 1-516): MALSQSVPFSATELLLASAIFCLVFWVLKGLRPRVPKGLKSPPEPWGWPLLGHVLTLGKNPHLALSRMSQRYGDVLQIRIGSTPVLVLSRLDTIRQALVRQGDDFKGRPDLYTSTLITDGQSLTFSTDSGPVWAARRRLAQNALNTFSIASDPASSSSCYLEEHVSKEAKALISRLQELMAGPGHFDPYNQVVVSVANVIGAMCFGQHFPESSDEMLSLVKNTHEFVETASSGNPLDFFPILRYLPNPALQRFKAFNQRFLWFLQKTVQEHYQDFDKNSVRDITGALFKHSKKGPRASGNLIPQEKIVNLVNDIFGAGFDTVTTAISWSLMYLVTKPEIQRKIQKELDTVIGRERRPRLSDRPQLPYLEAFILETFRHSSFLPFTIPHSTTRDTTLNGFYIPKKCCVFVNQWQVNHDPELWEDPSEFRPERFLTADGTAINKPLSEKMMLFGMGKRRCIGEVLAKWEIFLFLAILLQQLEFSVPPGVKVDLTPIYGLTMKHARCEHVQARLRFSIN
Test: Human cytochrome P450 inhibition, 1A2
Type: in vitro ADME
Details: read-out: % inhibition of CYP 1A2
Quantity: inhibition at 10 µM

Req: Answer with reported inhibition at 10 µM of CCSc1ncc(CN2CCN(c3nc4ccccc4o3)CC2)cn1 [C6]
Resp: < 1%

---

Could you please report measured activity at 10 µM for the items listed next?
Tested on: CDC1551(rv2390c′::GFP) reporter Mtb strain, response to high [Cl−]
Experiment: microbe, parasite or virus in culture
Type: cell-based, Mycobacterium tuberculosis
Details: Mycobacterium tuberculosis, 144 h; 10 µM, pH 6.4, 250 mM NaCl, 6 days; read-out: rv2390c'::GFP validation assay NPA% at 10 µM compound
Numbers only, in %.

Solved entries:
Req: Dear colleague, please send me the reported activity at 10 µM for NC(=O)c1cc2c(cc1-c1cccc(C(F)(F)F)c1)OCO2 when you can.
Resp: 221

Req: Please give measured activity at 10 µM of the following entry: Cc1ccc2cc(S(=O)(=O)NCCn3nc(C)c(Cl)c3C)ccc2c1
Resp: 122

Req: Identify measured activity at 10 µM associated with CCc1nc(C(=O)Nc2nc(C#N)c(C#N)[nH]2)nn1-c1ccccc1Cl
Resp: 258

Req: Look up and state reported activity at 10 µM for Cc1ccc(C(C)NC(=O)Nc2ccc(C#N)c(Cl)c2)o1 (stereo not drawn)
Resp: 113

Req: // Input: Cc1nc(NS(=O)(=O)c2ccc(F)c(F)c2)n(-c2ccc(C#N)cc2)n1 . Output its activity at 10 µM only.
Resp: 121

Each compound below has a reported value. Please supply its activity at 10 µM.
1. Cn1cccc1C(=O)NS(=O)(=O)c1ccc(C#N)c(Cl)c1
2. COc1ccc(OC)c(C2CCCN2C(=O)NCc2cccs2)c1 (stereo not drawn)
3. O=S(=O)(Nc1c(F)cccc1F)c1c(Cl)cccc1Cl
4. COc1ccc(Cl)cc1-c1cc(NC(=O)c2c(C)noc2C)[nH]n1
5. OCC(CNc1nc(N2CCCC2)nc(N2CCCC2)n1)Cc1ccco1 (stereo not drawn)

Resp:
1: 148; 2: 158; 3: 46.1; 4: 211; 5: 123

Please state activity at 10 µM for every compound in the list that follows.
1. Cc1ccc(-c2nc3nc(N)n(C)c(=O)c3nc2-c2ccc(C)cc2)cc1
2. COc1ccc2c(C)cc(Nc3cc(F)ccc3C)nc2c1
3. CC(C)(C)n1cc(C#N)c(NS(=O)(=O)c2cccc(F)c2)n1
4. O=C(Nc1ccc(OCC(F)(F)F)nc1)N1CCCCCCC1
5. CCCc1oncc1C(=O)NC1CC(=O)N(CCc2ccc(F)cc2)C1 (stereo not drawn)

Resp:
1: 140; 2: 128; 3: 51.2; 4: 87.5; 5: 126

Batch lookup, activity at 10 µM per entry.
1. CC(C)c1cc(C(=O)NC2CCN(c3cccc(F)c3)CC2)n[nH]1
2. COc1ccc2c(c1)OCC(C(=O)C(C#N)c1nc3ccccc3o1)C2 (stereo not drawn)

Resp:
1. 118
2. 131

Would you be so kind as to report activity at 10 µM for each listed record?
1. O=S1(=O)CC(S(=O)(=O)Nc2ccccc2-c2cccs2)c2ccccc21 (stereo not drawn)
2. COCCCC(=O)Nc1cccc(NC2CCCC2)c1
3. O=C(NC[C@H]1C[C@H]2C=C[C@H]1C21CC1)c1cnc(N2CCOCC2)nc1
4. O=C(Cc1ccc2c(c1)CCC2)NCc1ccccc1F
5. N=C1SCC(=O)N1c1ncc(Cc2ccccc2)s1

Resp:
1. 145
2. 152
3. 111
4. 130
5. 69

Below is a list of compounds. For each, state its recorded activity at 10 µM.
1. CCc1nc(Cn2ccnc2-c2nc3c(s2)CCCC3)no1
2. CCc1ccc(NC(=O)C2(N(C)C)Cc3ccccc3C2)cc1
3. Cc1cc(NS(=O)(=O)Cc2cccc(C(F)(F)F)c2)n(C)n1
4. CCOC(=O)C(C)Sc1nc2c(cnn2-c2ccccc2)c(=O)[nH]1 (stereo not drawn)
5. COc1ccc(Cl)c(NS(=O)(=O)c2cnc(Cl)n2C)c1
6. CCNC(=O)c1ccccc1OCc1nc(-c2ccc3c(c2)OCO3)no1
7. CC(NC(=O)C1Cc2ccccc2O1)c1ccc(Cl)s1 (stereo not drawn)

Resp:
1. 125
2. 124
3. 171
4. 48.1
5. 87.6
6. 92.6
7. 170

# map each compound to its activity at 10 µM
1. CCOC(=O)c1nnc(NC(=O)c2cc(Cl)cc(Cl)c2)s1
2. Cc1csc(/C(C#N)=C\c2ccc(C3CC3C)o2)n1 (stereo not drawn)
3. O=C(Nc1cccc(C(F)(F)F)c1)c1n[nH]c(=O)c2ccccc12
4. CC(CCc1ccccc1)Nc1ncnc(-n2cccn2)c1N (stereo not drawn)
5. COC(=O)Oc1sc2nc3ccccc3nc2c1N [RU-0193917, COC(=O)OC1=C(N)C2=C(S1)N=C1C=CC=CC1=N2]

Resp:
[118, 144, 142, 100, 166]

I need activity at 10 µM for every entry listed below, if you could help.
1. Cc1nc2nc(-c3cccs3)nn2c(O)c1C1CCS(=O)(=O)C1 (stereo not drawn)
2. CC(=O)N1N=C(c2c(-c3ccccc3)c3ccc(C)cc3[nH]c2=O)CC1c1ccco1 (stereo not drawn)

Resp:
9.1
125

This collection of values is drawn from paper PMC8351955.
